Experimental Target: human CTLA-4 (human) (UniProt P16410)
Sequence (P16410 36-223): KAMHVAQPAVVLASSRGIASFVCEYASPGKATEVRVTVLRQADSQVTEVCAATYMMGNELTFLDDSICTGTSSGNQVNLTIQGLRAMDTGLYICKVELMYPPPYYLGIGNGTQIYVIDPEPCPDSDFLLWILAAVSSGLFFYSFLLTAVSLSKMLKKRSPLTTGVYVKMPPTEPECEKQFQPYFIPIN
Assay Overview: flow cytometry, CHO cells expressing huCTLA4; MFI ratio to WT CD80 ECD-Fc (R&D)
Metric Name: Fold change to WT CD80 (fold)
// note: answer is a bare numeric in fold

Field: example entries. Status: answers known.
variant CD80 IgV-Fc Q33L/E35D/M43I/L85Q/R94W (Fc fusion) VIHVTKEVKEVATLSCGHNVSVEELAQTRIYWLKDKKMVLTMISGDMNIWPEYKNRTIFDITNNLSIVILALRPSDEGTYECVVQKYEKDAFKWEHLAEVTLSVKAD : 0.01
variant CD80 IgV-Fc Q33L/E35D/T41S/M47V (Fc fusion) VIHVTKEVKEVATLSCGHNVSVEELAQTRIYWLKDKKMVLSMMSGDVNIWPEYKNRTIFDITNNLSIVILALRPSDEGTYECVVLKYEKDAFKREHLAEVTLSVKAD : 0.08
variant CD80 IgV-Fc Q33L/E35D/M47I (Fc fusion) VIHVTKEVKEVATLSCGHNVSVEELAQTRIYWLKDKKMVLTMMSGDINIWPEYKNRTIFDITNNLSIVILALRPSDEGTYECVVLKYEKDAFKREHLAEVTLSVKAD : 0.09
variant CD80 IgV-Fc H18Y/E35D/V68M/L97Q (Fc fusion) VIHVTKEVKEVATLSCGYNVSVEELAQTRIYWQKDKKMVLTMMSGDMNIWPEYKNRTIFDITNNLSIMILALRPSDEGTYECVVLKYEKDAFKREHQAEVTLSVKAD : 0.97
variant CD80 IgV-Fc E35D/M47V/A71G/L85M/L97Q (Fc fusion) VIHVTKEVKEVATLSCGHNVSVEELAQTRIYWQKDKKMVLTMMSGDVNIWPEYKNRTIFDITNNLSIVILGLRPSDEGTYECVVMKYEKDAFKREHQAEVTLSVKAD : 1.34

Task item: Supply reported Fold change to WT CD80 belonging to this binder: variant CD80 IgV-Fc H18Y/V20A/Q33L/E35D/M47V/Y53F (Fc fusion) VIHVTKEVKEVATLSCGYNASVEELAQTRIYWLKDKKMVLTMMSGDVNIWPEFKNRTIFDITNNLSIVILALRPSDEGTYECVVLKYEKDAFKREHLAEVTLSVKAD
Reply: 0.02

Reference source for all entries: patent US20220177587A1
